- experimental_system: Galectin-3 (Homo sapiens)
- Sequence (P17931 whole entry): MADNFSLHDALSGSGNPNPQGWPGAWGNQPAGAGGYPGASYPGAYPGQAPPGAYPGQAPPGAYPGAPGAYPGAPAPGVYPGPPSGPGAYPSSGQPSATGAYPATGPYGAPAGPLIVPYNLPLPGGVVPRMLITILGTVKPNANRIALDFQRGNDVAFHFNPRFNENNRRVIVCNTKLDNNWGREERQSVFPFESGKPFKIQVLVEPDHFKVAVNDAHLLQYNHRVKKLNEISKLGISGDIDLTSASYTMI
- assay_details: Binding affinity to wild type Galectin-3 (unknown origin) assessed as dissociation constant by fluorescence polarization assay
assay_readout: Kd (µM)

>>> reported_measurement("Cc1ccc(S[C@@H]2O[C@H](CO)[C@H](O)[C@H](n3cc(S(=O)(=O)c4ccccc4)nn3)[C@H]2O)cc1")
79
